- Tested on: DU-145 prostate
- Run description: NCI-60 one-dose screen, 48 h (100 = growth as untreated, 0 = no growth, -100 = all killed)
- Setup conditions: 10 µM unless noted
Compounds without any hit were thinned out: in the full panel of roughly 83,000, 20% have a hit.
growth values, listed per item
# value in %; strip the unit string

| Molecule | growth / % |
| --- | --- |
| COc1ccc(C2=C(Nc3ccc(C(=O)Nc4ccccc4)cc3)C(=O)N(C)C2=O)cc1 | 98 |
| O=C1C(=O)N(Cc2ccc(-c3ccccc3)cc2)c2ccc(OC(F)(F)F)cc21 | 36.4 |
| CCOC(=O)c1ccc2c(c1)nc(-c1ccccc1)n2C1CCCCC1 | 105 |
| COC(=O)Nc1nc2ccc(S(=O)c3ccccc3)cc2[nH]1 (stereo unspecified) | 96.3 |
| Clc1ccc(/C=N\N=C\c2ccc(Cl)c(Cl)c2)cc1Cl | 3.88 |

Could you now look at the following molecule, please?
Returns the measured growth for the input molecule. Input: COc1cc(NS(=O)(=O)c2ccc(-c3cnc(C4CC4)o3)cc2)ccc1F
23

* * *

- Test system: COLO 205 colon
- Run description: NCI-60 one-dose screen, 48 h (100 = growth as untreated, 0 = no growth, -100 = all killed)
- Setup conditions: 10 µM unless noted
About 83,000 compounds went through this panel and 20% of them were active in at least one assay; those are over-represented in the sample as a whole.
Measurement kind: growth (%)
# value in %; strip the unit string

These recorded examples may help you get a feel for the data.
| Compound | growth (%) |
| --- | --- |
| COc1ccc(OC)c(Nc2nnc(-c3ccc(O)c(OC)c3)o2)c1 | 117 |
| CN(C)CCNC(=O)c1ccc(-c2nc3ccc4[nH]ncc4c3c3c2C2CCC3C2)cc1 (stereo not drawn) | 18.6 |
| O=C1/C(=C/c2ccccc2O)CC/C1=C\c1ccccc1O | 107 |
| Cc1nc2sc(C(=O)Nc3cccc4ccccc34)c(N)c2cc1C(O)c1ccccc1 (stereo not drawn) | -58.2 |
| COc1ccc2cc1Oc1ccc(cc1)C[C@H]1c3c(cc4c(c3Oc3cc5c(cc3OC)CCN(C)[C@@H]5C2)OCO4)CCN1C | 109 |
| CCOC(=O)c1nn(-c2ccc(S(N)(=O)=O)cc2)c2nc(C)cc(=O)n12 | 114 |
| O=C(Nc1ccc(OS(=O)(=O)c2ccc(F)cc2)cc1)C1CCCCCC1 | 64.6 |
| Clc1cc(Cl)c(Cl)c(-c2nnc(SCc3ccncc3Br)o2)c1 | 110 |

Returns the measured growth for the input compound. Input: Nc1nc(N)c(-c2ccc(Cl)c(Cl)c2)c(CBr)n1
76.6

// next record Nc1nc2ccc(-c3nc4ccc5[nH]ncc5c4c4c3CCCC4)cc2s1
106

// next record CCCCCCCCCCCCCCCCCCOc1ccccc1CC(=O)OCC[N+](C)(C)C
-67.3

// next record CS(=O)(=O)c1ccc(-c2cnn3ccc(-c4cccc(S(=O)(=O)C5CC5)c4)nc23)cc1
64.3

// next record Cn1cc(-c2ccc3nc(-c4ccc(CC(=O)ONc5cc(C(C)(C)C)on5)cc4)cnc3c2)cn1
51.3

* * *

- Tested on: HT29 colon
- Run description: NCI-60 one-dose screen, 48 h
- Setup conditions: 10 µM unless noted
About 83,000 compounds went through this panel and 20% of them were active in at least one assay; those are over-represented in the sample as a whole. The source made the active and inactive calls. Rule for the calls: active = growth percent below 10; inactive = the rest.
Assign a class; possible classes are active, inactive

Please review the following examples before continuing.
| Compound | Cat |
| --- | --- |
| NC(=O)CSc1oc(-c2ccccc2)nc1S(=O)(=O)c1ccc(Br)cc1 | inactive |
| O=C1/C(=C/c2ccccc2Br)COc2ccc(O)cc21 | inactive |
| CCSc1nc2scc(C)c2c(=O)[nH]1 | inactive |
| S=c1sc2c(Cl)nc(-c3cccnc3)nc2n1-c1ccccc1 | active |
| CN1CCN(C(=O)c2ccc(NC(=O)c3cc4c(nn3)NCCN4Cc3cc(Cl)ccc3Cl)cc2)CC1 | inactive |

Hi team, can someone confirm the assay call for O=[N+]([O-])c1ccc(O)cc1Br ?
inactive

// next record O=C(CN1CCCCC1)Nc1nc(-c2cc3ccccc3oc2=O)cs1
inactive

// next record CC(=O)N1N=C(c2ccc(C(F)(F)F)c(F)c2)CC1c1[nH]c(C)c(C(=O)NCC(F)(F)F)c1C (stereo unspecified)
inactive

// next record CC(C)c1ccc(Cc2cnc(NC(=O)c3cc(Br)cs3)s2)cc1
active

// next record CS(=O)(=O)Nc1cc(-c2ccc3ncnc(Nc4ccc5c(cnn5Cc5ccc(F)cc5)c4)c3c2)cnc1Cl
inactive

// next record O=C1NC(=C(Cl)Cl)/C(=N\S(=O)(=O)NCc2ccccc2)N1
inactive

* * *

- Test system: SK-MEL-28 melanoma
- Run description: NCI-60 one-dose screen, 48 h
- Setup conditions: 10 µM unless noted
- Method: Growth inhibition of the SK-MEL-28 human tumor cell line is measured as a screen for anti-cancer activity. Cells are grown in 96 well plates and exposed to the test compound for 48 hours. Compounds are tested at a single concentration, which is 10^-5 M for most compounds. The reported endpoint is percent growth (GI% or GIPRCNT), where numbers from 0 - 100% represent growth inhibition, and numbers from -100% - 0 represent cell death. For example, a value of 40 represents 60% growth inhibition. […]
This is part of a sample that, as a whole, favours compounds with a hit. Of some 83,000 tested, about 20% had one in any assay. Activity calls are given as the source filed them. The calls were made as follows: active = growth percent below 10; inactive = the rest.
Assign a class; possible classes are active, inactive

Please review the following examples before continuing.
| Compound | Cat |
| --- | --- |
| Oc1c(I)cc(I)cc1CNCc1ccccn1 | inactive |
| O=C(/C=C/c1ccco1)Nc1ncc(Cc2cccc(C(F)(F)F)c2)s1 | inactive |
| Cc1ccc(-c2nc([P+](c3ccccc3)(c3ccccc3)c3ccccc3)c(S(=O)(=O)c3ccc(C)cc3)o2)cc1 | inactive |
| CC1CCN(CCOc2ccc(CNc3ccc4nc(CCC5CCCCC5)[nH]c4c3)cc2)CC1 | active |

Consider the record given below.
Hi team, can someone confirm the assay call for CSc1nc2ccccc2cc1/C=[N+](\[O-])c1ccccc1 ?
inactive

* * *

- Test system: UACC-257 melanoma
- Run description: NCI-60 one-dose screen, 48 h (100 = growth as untreated, 0 = no growth, -100 = all killed)
- Setup conditions: 10 µM unless noted
Compounds without any hit were thinned out: in the full panel of roughly 83,000, 20% have a hit.
Measurement kind: growth (%)
# value in %; strip the unit string

Returns the measured growth for the input compound. Input: CSc1nc2ccccc2cc1/C=[N+](\[O-])c1ccccc1
90

// next record COc1ccc(C2=Nc3c(N)nc(N)nc3NC(c3cccc(Nc4ccnc5cc(C(F)(F)F)ccc45)c3)C2)cc1 (stereo not given)
87.8

// next record COCCOc1cc2ncnc(N3CCN(c4cc(S(C)(=O)=O)c(C)cc4Cl)CC3)c2cc1OCCOC
91.1

// next record CC(=O)n1nc(C(=O)OC(C)(C)c2ccccc2)c2ccccc21
89.5

// next record CCOC(=O)[C@@H]1CSC(CC)=C(C(=O)O)N1
89.1

* * *

- Tested on: OVCAR-8 ovarian
- Run description: NCI-60 one-dose screen, 48 h (100 = growth as untreated, 0 = no growth, -100 = all killed)
- Setup conditions: 10 µM unless noted
The panel holds about 83,000 compounds, 20% with a hit somewhere; the sample as a whole holds those more often.
Measurement kind: growth (%)
# value in %; strip the unit string

Hi! What's the reported growth for O=S(=O)(Nc1cc(F)cc(Cl)c1)c1ccc(-c2cnc(C3CC3)o2)cc1 on OVCAR-8 ovarian?
39.8

// next record CN1CCN(c2cc(Nc3cc(C4CC4)[nH]n3)nc(Nc3ccc(CC(=O)NCc4cccc(F)c4)cc3)n2)CC1
40.7

// next record Cc1ccc(NC(=O)c2sc3nc(C)c(Br)c(C)c3c2N)cc1
39.7

* * *

growth values, listed per item
- Tested on: SR leukemia
- Run description: NCI-60 one-dose screen, 48 h (100 = growth as untreated, 0 = no growth, -100 = all killed)
- Setup conditions: 10 µM unless noted
Compounds without any hit were thinned out: in the full panel of roughly 83,000, 20% have a hit.
# value in %; strip the unit string

These recorded examples may help you get a feel for the data.
| Smiles notation | growth (%) |
| --- | --- |
| Cc1[nH]c(=O)[nH]c(=O)c1Br | 77.6 |
| COc1cc(-c2nc3sccn3c2-c2ccnc(NCCNS(=O)(=O)c3ccccc3)n2)ccc1F | 45.3 |

Could you now look at the following compound, please?
Returns the measured growth for the input compound. Input: O=C(c1ccncc1)N1N=C(c2ccc(Cl)cc2)C[C@H]1c1cn(-c2ccccc2)nc1-c1ccccc1
91.1

* * *

- System: SF-539 CNS
- Run description: NCI-60 one-dose screen, 48 h (100 = growth as untreated, 0 = no growth, -100 = all killed)
- Setup conditions: 10 µM unless noted
Compounds without any hit were thinned out: in the full panel of roughly 83,000, 20% have a hit.
growth values, listed per item
# value in %; strip the unit string

| Compound | growth (%) |
| --- | --- |
| O=C(Nc1ccc(Oc2cccc(F)c2)c(Cl)c1)c1cccnc1 | 4.06 |
| CCOC(=O)C(=O)C(C(=O)OCC)c1ccccc1 (configuration not stated) | 118 |
| Cc1ccccc1/C=C/C(=O)c1cccc(OCCCCOc2cccc(C(=O)/C=C/c3ccccc3C)c2)c1 | 105 |

Returns the measured growth for the input compound. Input: O=C(NNC(=O)c1ccc(NC(=O)c2ccccn2)cc1)Nc1ccc([N+](=O)[O-])cc1
60.9

// next record COc1c(B(O)O)cccc1-c1cc(C)c2c(ccc3[nH]ncc32)n1
25.2

// next record C=CCn1c(C)nc2ccc(Nc3nc(Nc4ccc5nc(C)n(CC=C)c5c4)c4ccccc4n3)cc21
-93.8

// next record Clc1ccc2c(c1)C(c1c[nH]c3ccccc13)(c1c[nH]c3ccccc13)CCO2
95.4

// next record Cn1cc(-c2ccc3nc(-c4ccc(CC(=O)ONc5cc(C(C)(C)C)on5)cc4)cnc3c2)cn1
17

// next record COc1ccc(CN2c3ccccc3Sc3ccccc32)cc1F
-6.34

// next record O=C(CSC(=S)n1cnnc1)NC(=O)c1ccccc1
100

// next record Clc1ccc(/C=N\N=C\c2ccc(Cl)c(Cl)c2)cc1Cl
102

// next record CCSc1nc2scc(C)c2c(=O)[nH]1
99.2
